Method: pharmacokinetic study, serum half-life
Assay type: in vivo
Ends that are not written are not given here.
Observable: half-life (h)
Lab book: enter the figure in h, no units written.

**Q:** Param item = EYGLFQISNKK [zinc-charged 4H3] ; retrieve measured half-life.
**A:** 8
